As an illustration, consider measured log10(IC50) for compounds on UniProtKB P48147.
Sequence (P48147 whole entry): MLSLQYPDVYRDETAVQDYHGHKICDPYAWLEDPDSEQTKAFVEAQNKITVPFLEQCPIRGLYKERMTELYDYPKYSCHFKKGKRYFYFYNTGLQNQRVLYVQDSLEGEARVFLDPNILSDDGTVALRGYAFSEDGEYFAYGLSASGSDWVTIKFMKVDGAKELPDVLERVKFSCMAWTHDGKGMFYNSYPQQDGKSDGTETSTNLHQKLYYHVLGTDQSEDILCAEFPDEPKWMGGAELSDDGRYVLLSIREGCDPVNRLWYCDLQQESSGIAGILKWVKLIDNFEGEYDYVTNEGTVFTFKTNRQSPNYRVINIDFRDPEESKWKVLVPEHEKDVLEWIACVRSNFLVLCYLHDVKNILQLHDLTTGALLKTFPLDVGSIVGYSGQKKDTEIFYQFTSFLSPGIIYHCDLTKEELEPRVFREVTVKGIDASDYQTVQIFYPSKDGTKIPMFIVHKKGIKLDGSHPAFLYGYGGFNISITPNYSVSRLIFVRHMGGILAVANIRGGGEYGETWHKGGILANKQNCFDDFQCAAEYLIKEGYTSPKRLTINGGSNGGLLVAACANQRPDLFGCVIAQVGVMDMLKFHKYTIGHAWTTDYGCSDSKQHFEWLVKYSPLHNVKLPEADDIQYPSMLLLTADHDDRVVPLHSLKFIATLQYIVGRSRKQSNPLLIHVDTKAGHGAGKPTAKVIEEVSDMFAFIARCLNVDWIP
Record value = log10 of IC50 given in nM.

Please review the following examples before continuing.
>>> assay_value("CC1(C2CC2)CN(c2ccc3nccc(C(=O)NCC(=O)N4CSC[C@H]4C#N)c3c2)C1")
2.79
>>> assay_value("Cc1ccc2c(C(=O)NCC(=O)N3CSC[C@H]3C#N)ccnc2c1 [B, reference compound]")
0.72
>>> assay_value("C[C@@H]1CN(c2ccc3nccc(C(=O)NCC(=O)N4CSC[C@H]4C#N)c3c2)C[C@H](C)[C@]1(C)O")
2.56
>>> assay_value("COC[C@@H]1CCCN1c1ccc2nccc(C(=O)NCC(=O)N3CSC[C@H]3C#N)c2c1")
2.52
>>> assay_value("N#C[C@@H]1CSCN1C(=O)CNC(=O)c1ccnc2ccc(N3CCOC(F)(F)C3)cc12")
3.04
>>> assay_value("C[C@H]1OCCN(c2ccc3nccc(C(=O)NCC(=O)N4CSC[C@H]4C#N)c3c2)[C@H]1C")
3.23
>>> assay_value("N#C[C@@H]1CSCN1C(=O)CNC(=O)c1ccnc2cc(Cl)c(N3CCOCC3)cc12")
2.67

Now consider a different compound.
[ask] Name the reported log10(IC50) value associated with the compound CO[C@@H]1CCN(c2ccc3nccc(C(=O)NCC(=O)N4CSC[C@H]4C#N)c3c2)C1
[reply] 2.67
